Test: Chemical stability in artificial gastric fluid (SGF without enzymes)
Details: 10 μM in SGF without enzymes, pH=1.4, 37° C.
Readout kind: Amount of substance in the sample in % (chemical stability) (%)

Compound | Result number
C=CC(=O)N1CCC[C@@H](n2nc(-c3ccc(C(=O)Nc4ccccn4)cc3)c3cncc(C#N)c32)C1 [BCD-BTK-228] | 99.9
C=CC(=O)N1CCC[C@@H](Cn2nc(-c3ccc(C(=O)Nc4ccccn4)cc3)c3cncc(Cl)c32)C1 [BCD-BTK-279] | 100
C=CC(=O)N1CCC[C@@H](n2nc(-c3ccc(Oc4cccnc4C(N)=O)cc3)c3cncc(F)c32)C1 [BCD-BTK - 255] | 100
C=CC(=O)N1CCC[C@@H](n2nc(-c3ccc(C(=O)Nc4cc(C(F)(F)CC)ccn4)cc3)c3c(N)ncc(Cl)c32)C1 [BCD-BTK-231] | 100
C=CC(=O)N1CCC[C@@H](n2nc(-c3ccc(C(=O)Nc4cc(C(F)(F)CC)ccn4)cc3)c3cncc(Cl)c32)C1 [BCD-BTK -215] | 100
C=CC(=O)N1CCC[C@@H](n2nc(-c3ccc(C(=O)Nc4cc(C(F)(F)CCC)ccn4)cc3)c3cncc(Cl)c32)C1 [BCD-BTK - 252] | 94.4
CC#CC(=O)N1CCC[C@@H]1Cn1nc(-c2ccc(C(=O)Nc3ccccn3)cc2)c2cncc(Cl)c21 [BCD-BTK-269] | 100
C=CC(=O)N1CCC[C@@H](n2nc(-c3ccc(Oc4cccnc4C#N)cc3)c3cncc(C#N)c32)C1 [BCD-BTK -216] | 96.3
CC#CC(=O)N1CC(Cn2nc(-c3ccc(Oc4ccncc4)cc3)c3cncc(Cl)c32)C1 [BCD-BTK-261] | 100

###

System: Z-138 (mantle cell lymphoma)
Assay: Antiproliferative activity, Z-138 cells (Alamar Blue)
Format: cell-based
Conditions: Homo sapiens, Table 10, 72 h, average of several tests
Method: Antiproliferative activity of BTK inhibitors was measured in cell-based bioassay on B-cells cultures: Mino (mantle cell lymphoma, ATCC® CRL-3000™), Z-138 (mantle cell lymphoma, ATCC® CRL-3001™) and DOHH2 (follicular lymphoma, Creative Bioarray CSC-C0219) using cell viability reagent Alamar Blue (Invitrogen, #DAL 1100). […]
Items are presented alongside their recorded IC50.

Compound | Result
C=CC(=O)N1CC[C@H](Cn2nc(-c3ccc(C(=O)Nc4ccccn4)cc3)c3cncc(Cl)c32)C1 [BCD-BTK-285] | > 34.6 µM
C=CC(=O)N1CCC[C@@H](n2nc(-c3ccc(C(=O)Nc4cc(C(F)(F)CC)ccn4)cc3)c3cncc(C#N)c32)C1 [BCD-BTK-219] | ~50 µM

Now for another entry.
Reported IC50 for C=CC(=O)N1CCC[C@@H](n2nc(-c3ccc(C(=O)Nc4cc(C(C)(F)F)ccn4)cc3)c3cncc(C#N)c32)C1 [BCD-BTK-224] : what is it?
> 50 µM

###

Assay: General cytotoxicity on HepG2 cells (CC50; therapeutic index CC50 HepG2/IC50 Mino)
Format: cell-based
Conditions: human, HepG2 cells (hepatocellular carcinoma); Table 10; 72 hours, Alamar Blue; average of several tests
Readout kind: CC50 at 72 h

See these solved cases before continuing.
Smiles representation | CC50 at 72 h
C=CC(=O)N1CCC[C@@H](n2nc(-c3ccc(Oc4cccnc4C(N)=O)cc3)c3cncc(Cl)c32)C1 | > 50 µM
C=CC(=O)N1CC[C@@H](Cn2nc(-c3ccc(C(=O)Nc4ccccn4)cc3)c3cncc(Cl)c32)C1 | > 100 µM
C=CC(=O)N1CCC[C@@H](n2nc(-c3ccc(C(=O)Nc4ncccc4F)cc3)c3c(N)ncc(C#N)c32)C1 | > 50 µM
C=CC(=O)N1CC[C@H](Cn2nc(-c3ccc(C(=O)Nc4ccccn4)cc3)c3cncc(Cl)c32)C1 | > 100 µM
C=CC(=O)N1CCC[C@H]1Cn1nc(-c2ccc(Oc3ccncc3)cc2)c2cncc(Cl)c21 | > 50 µM

# context switch: different compound, same CC50 at 72 h
Entry under review: C=CC(=O)Nc1cc2c(-c3ccc(-n4ccc(=O)cc4)cc3)nn([C@@H]3CCCN(C(=O)C=C)C3)c2nc1C . Reported CC50 at 72 h?
> 50 µM
